# Test system: c-Abl (mouse);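 note: 11-residue human phosphosite peptides and single-mutation variants displayed on the E. coli surface, counted by deep sequencing, each peptide's frequency after selection divided by its frequency in the unselected input library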;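 note: frequency after pTyr selection over input frequency; kinase dosed for 20-30% of maximal phosphorylation in three min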
# assay-remarks: phosphorylation enrichment, bacterial display (enrichment ratio); higher = better substrate or ligand; peptides without Tyr show the background
In this section, each of the sequences is paired with its reported phosphorylation enrichment.

Recorded results for 10 sequences are shown here.
AGADGYDFLAP [FOXL2_Y186_G187D_YF]    0.785
PTKNDYWAMLA [WWOX_Y287]    0.939
SPYMLYQYLKQ [RPAP3_Y567_D564Y]    3.63
LNARHYGGLTG [PGAM2_Y92_E89A]    0.668
ALHRPYGCDVE [ABL2_Y80]    0.571
INNKMYDPKMN [ENPP1_Y280_D276N]    0.473
MENFIYESMRY [CYP19A1_Y361]    1.25
FFTEEYVRAHP [DOCK2_Y1555_D1558A]    1.01
FTNRNYDLDFD [MYC_Y12_YF]    1.01
MFDKEYFSVHN [MET_Y1234_YF]    0.782

Give phosphorylation enrichment (c-Abl (mouse)) of the following sequence: VDEERYDIEGK [TNNI3_Y112_A116G] 0.896
